Values compiled from the EternaBench riboswitch data.

# System: MS2 coat protein
# test-method-notes: apparent Kd, MS2 coat protein; higher = weaker binding; RNA-MaP array; FMN 200 µM where present
# experimental-conditions: designed as: OFF switch for flavin mononucleotide; no ligand
Can you tell me apparent Kd for the items I'm about to list?
The response must be a number in nM with no trailing unit.

Requested read-out apparent Kd, target or system MS2 coat protein, entry CUGGAUAGAGGAUAUUGUGCUGCUGACAUGAGGAUCACCCAUGUAUGUUAACUCGGCCGUCGAGAAGGCUAACAGG
24.7

Query the reported apparent Kd for MS2 coat protein; item: AAUUGACACGUAGGAUAUCGCUCUAAUUAAACACGAGAAGGACGUACAUGAGGAUCACCCAUGUUAAAUGGUGUAGAUAAGUUG
172

Recall the recorded apparent Kd for CUAAUGUGAGGAUAUGGUGUUGAUCGCAGGAAGGAGAUUCUCCAGAAGGCACAUGAGGAUCACCCAUGUAGUGA with MS2 coat protein and state it.
103

Lab note: need apparent Kd for GAUCAACAUGAGGAUCACCCAUGUGAGGAUAUGAUACUAUGUACUUCGGUACAUAGUAUCAGAAGGCAUAUGAA on MS2 coat protein, anyone have it?
56.7

---

# Tested on: MS2 coat protein
# test-method-notes: apparent Kd, MS2 coat protein; higher = weaker binding; RNA-MaP array; theophylline 2 mM where present
# experimental-conditions: designed as: OFF switch for theophylline; no ligand
measurement-kind: apparent Kd (nM)
Answer format: numeric, nM implied, no suffix.

Which apparent Kd value is on record for GUAUGGAAACAUACUAGGGUAUCGUGAGAUACCAGUACAGAAAUGUACCCUUGGCAGCUCGCGCAUACAUGAGGAUCACCCAUGU ?
18.8

Please give the measured apparent Kd for this sequence: ACAUGAGGAUCACCCAUGUUCCUCUUUGAUACCAGUGAGUUGUUUCGCCCUUGGCAGCGAGUUUUUUUUUUUUUGUUUUGUUUGG
274

Any idea what apparent Kd was measured for GAUGAACAUACUGAUACCAGUGUACUGACAUGAGGAUCACCCAUGUUGGGUUUUGUUGUACACCCUUGGCAGCAGAAUGUUUAUC ?
72.2

GET /values?readout=apparent Kd&item= AGACAUGAGGAUCACCCAUGUAGCAUGGAUACCAGAUGUAGAUUUAUCCCUUGGCAGCUGUGGUAAAGUGAUGCAUUGCUCCUAG
37.8

Give its apparent Kd value. Item: ACAUGAGGAUCACCCAUGUUCCUCGCCGAUACCAGUGAAGAAUUACGCCCUUGGCAGCGGAAUGAGUGUUUUGGAGAUGAGGUAC
62.4

---

# System: MS2 coat protein
# test-method-notes: apparent Kd, MS2 coat protein; higher = weaker binding; RNA-MaP array
# experimental-conditions: ligand present: flavin mononucleotide; designed as: ON switch for flavin mononucleotide
measurement-kind: apparent Kd

Need apparent Kd, item UGAGCAUCCCAGAAGGAUAUAUGGUCGUAAACAUGAGGAUCACCCAUGUUCCAUUUAGGACUCAAAUAGAAGGUCUCGGGCCAGAC
0.0117 µM

Fill blank: measured apparent Kd of the sequence UACAUGAGGAUCACCCAUGUGGUCAGGUUAUCCCGGACGGGAAGAAGGAUAAGAGAGUAACAUUUAUAGGAUAUUCGCCUCAUU is ____.
0.0489 µM

Using the record for AUCUUAGGUGAGAAGGUGGACACAUGAGGAUCACCCAUGUUGAUGGUCUUGUAGCGUUUGCAAGCCAAGGAUAUCAUCUACGGC , report its apparent Kd.
0.0198 µM

Quick one: apparent Kd for CUAAAACAUGAGGAUCACCCAUGUGUUUAGCGCAGAGGAUAUUGGGAUUGGUUGCUCGCUCAAGAAGGCUGAUUGG ?
0.00702 µM

---

# Test system: MS2 coat protein
# test-method-notes: apparent Kd, MS2 coat protein; higher = weaker binding; RNA-MaP array; FMN 200 µM where present
# experimental-conditions: designed as: OFF switch for flavin mononucleotide; no ligand
Outcome label depends on apparent Kd relative to 20 nM: at/above gives T, below gives F.

Could you verify whether the entry AGUAGACAAGGAUAUACAUGAGGAUCACCCAUGUGUGAAGGCCAGGAGGCUCCUCCCUGUAGAAGGUGUCGAGU shows apparent Kd of no less than 20 nM?
T

I'd appreciate it if you could say whether AAGAAAGUAUUGCGAGGGUAGGAGCAGGAUAUCCCAUUGGCCCUCACAUGAGGAUCACCCAUGUGGGAGAAGGGCUAUUACGUU has apparent Kd at least equal to 20 nM.
F

Is it the case that UGAUAACAUGUAGGAUAUCCAGCAUUGACCAUCGGAGAAGGACAUGAGGAUCACCCAUGUACCGAUACAAUGGGAUAAUGGAAU has apparent Kd reaching or exceeding 20 nM?
F

Tell me whether apparent Kd is at least 20 nM here: GCACGGAUGGUAGGAUAUCAUUGCGAUUAGCUAUGAGAAGGGCCACAUGAGGAUCACCCAUGUCCUCUAAUUAGCCUUCCGUGC
T

Is the recorded value of apparent Kd equal to or greater than 20 nM for this sequence? UUUAAUUUAAUUAAGAUCACAUGAGGAUCACCCAUGUAAUUAUAGGAUAUCAGCUCGAAUAGAGCUGAGAAGGAUAAUUACAUA
T

Quick check, apparent Kd >= 20 nM? AGGCAAUCAGGAUAUACAUGAGGAUCACCCAUGUGUACAAAGCACAUCCGAUCUAGAUGUAGAAGGGAUAUGCA
F

Given CCUCUACAUGAGGAUCACCCAUGUGAGGAUAUCUCGGAGCAGCCACUUAAAGCACUCCAGAGAAGGCACGUGUA , state whether its apparent Kd is at least 20 nM.
F

---

# Test system: MS2 coat protein
# test-method-notes: apparent Kd, MS2 coat protein; higher = weaker binding; RNA-MaP array; FMN 200 µM where present
# experimental-conditions: designed as: OFF switch for flavin mononucleotide; no ligand
Note to self: values exactly at 40 nM are true (1). So apparent Kd at or above 40 nM is true (1), below is false (0).

Can CAGUACUGAGGAUAUACAUGAGGAUCACCCAUGUGCCUCAGGUAGGAUACUACCAUUAGUAGAAGGCAGUACUG be said to have apparent Kd at or above 40 nM?
true (1)

I'd appreciate it if you could say whether AAGACUAGAGGAUAUACAUGAGGAUCACCCAUGUAACUGUCAGGAGACUGACGGAGAUGUAGAAGGCUAGUCAA has apparent Kd at least equal to 40 nM.
false (0)

Is reported apparent Kd greater than or equal to 40 nM here: CAGGUUAGAGGAUAUACGUAGGUACAGAUCUGUGUGUUCCUACAUGAGGAUCACCCAUGUAGAAGGCUAUCCUG
true (1)

Item AAUAACAGAGGAUAUACUAUUUUAUGUGUUUAUUGUUUUAAACAUGAGGAUCACCCAUGUAGAAGGCUGAUUGA with apparent Kd of 40 nM or above?
true (1)

Quick check, apparent Kd >= 40 nM? UCGAUGCUAGGAUAUACUAAUACAACUACUGUAGUGUCUUCACAUGAGGAUCACCCAUGUAGAAGGAGCAUAUA
false (0)

Check if apparent Kd >= 40 nM (inclusive). Item: AAUAUGUUAGGAUAUGCUGCUCGUCACAAAAGUGAUGAGUAGCAGAAGGGACAUGAGGAUCACCCAUGUAAAGA
false (0)

Identify whether the reported apparent Kd of the following sequence is 40 nM or greater: UUUAGUUCAGGAUAUGUAGAUUUUAACAUGAGGAUCACCCAUGUAGAUCCUGAAUUAACUACAGAAGGGAACAUUA
false (0)

Please indicate if the recorded apparent Kd for CGCACUGAUAGAGGAUAUGUUUAACAUGAGGAUCACCCAUGUGUACAAGUAUCAAUAUUUAUGUAACAGAAGGCUAUUAGUGCG meets or exceeds 40 nM.
false (0)

Decide: apparent Kd of ACAUGAGGAUCACCCAUGUACAUGGGUUUAAUUGUUUGUUACUAGGAUAUGUAUUUGAAUUUACAACAGAAGGAGUAUUAAUGU >= 40 nM?
true (1)

Exam item: decide whether the reported apparent Kd for GCCUCAUAGUAGAAGGGACUUAGACAGUAAAGUUUAUAGAGGAAAUAACAUGAGGAUCACCCAUGUCAGGAUAUACUAAGAGGC is at least 40 nM.
false (0)

Is apparent Kd for UAGAAGUCAGGAUAUCCAGCUCGUCACUUGCGUGAUGAGUUGGAGAAGGGACAUGAGGAUCACCCAUGUAAAGC at or above 40 nM?
true (1)

Determine whether this sequence has apparent Kd no lower than 40 nM: GUCGUGCGGCUUUGCUGUACGAGUACAUGAGGAUCACCCAUGUAGGAUAUGGUUCGCUUUGCGUGCCAGAAGGGCGUGCGUUGU
false (0)

Determine whether this sequence has apparent Kd no lower than 40 nM: UUAUGUGUUGUAGGAUAUCAUUAGAUUUGUAAUUUAAUUGUAAUUUAUAUAUGAGAAGGACAUUUACAUGAGGAUCACCCAUGU
false (0)

Check if apparent Kd >= 40 nM (inclusive). Item: UUAUAUAGAGUGAGGAUAUGCUGGUCCUUGGAUCAGCAGAAGGCACAUGAGGAUCACCCAUGUAAUAUAAUAUU
false (0)
